target: RSV postfusion F (postF), F deltaFP (Respiratory Syncytial Virus); experiment: BLI, IgG on anti-human IgG sensor, 100 nM antigen
pKd values by entry
Lab note — pKd values are minus log10 of concentrations in M.

{"binder": "ADI-41225 (antibody, V domains shown) VH: EVQLVESGGGLVKPGGSLRLSCAASGFSLSDYYMTWLRQAPGKGLEWVSSIGTTSTYTNYAESVKDRFTISRDNAKNSLYLQMNSLRAEDTAVYYCARDWGFGVERGYFDLWGRGTLVTVSS VL: DIVLTQTPSTLSASVGDRVTITCRASQSISFWLAWYQQKPGKAPKLLIYKASTLESGVPSRFSGRGSGTDFTLTISSLQPDDFATYYCQQYNTYTWTFGQGTKVEIK", "observed.measurement": 9.13}
{"binder": "ADI-41186 (antibody, V domains shown) VH: EVQLLESGAEVKKPGESLKISCKGSGYSFSSYWIAWVRQMPGKGLEWMGIIYPSDSDTKYSPSFQGQVTISADKSISTAYLQWSSLKASDTAMYYCARQAGIQRPLDYWGQGTLVTVSS VL: EIVMTQSPATLSVSPGERATLSCRASQSVRSNLAWYQQKPGQAPRLLIYDASTRATGISARFSGSGSGTEFTLTISSLQSEDFAVYYCQQFHNWPPYTFGQGTKVEIK", "observed.measurement": 9.15}

Below: the item to evaluate.
Exam item: For the binder ADI-41205 (antibody, V domains shown) VH: QVQLQESGPGLVKPSGTLSLTCAVSGGSISSTNWWSWVRQPPGKGLEWIGEIYHSGSTNYNPSLKSRVTISVDKSNNQFSLNLSSVTAADTAVYYCARGVITYRGSWFLQYFDYWGQGTLVTVSS VL: DIRVTQSPDSLAVSLGERATINCKSSQSLFYSSNNQNYLAWYQQKPGQPPKLLIYWASTRQSGVPHRFSGSGSGTDFTLTISSLQAEDVAVYYCQQYYSSPLTFGGGTKVEIK , what pKd is on record?
Marked response: 9.27

Data credit: patent US20260258115A1
